Readings of Ki for the listed molecules
- tgt: Kappa-type opioid receptor (Homo sapiens)
- Sequence (P41145 whole entry): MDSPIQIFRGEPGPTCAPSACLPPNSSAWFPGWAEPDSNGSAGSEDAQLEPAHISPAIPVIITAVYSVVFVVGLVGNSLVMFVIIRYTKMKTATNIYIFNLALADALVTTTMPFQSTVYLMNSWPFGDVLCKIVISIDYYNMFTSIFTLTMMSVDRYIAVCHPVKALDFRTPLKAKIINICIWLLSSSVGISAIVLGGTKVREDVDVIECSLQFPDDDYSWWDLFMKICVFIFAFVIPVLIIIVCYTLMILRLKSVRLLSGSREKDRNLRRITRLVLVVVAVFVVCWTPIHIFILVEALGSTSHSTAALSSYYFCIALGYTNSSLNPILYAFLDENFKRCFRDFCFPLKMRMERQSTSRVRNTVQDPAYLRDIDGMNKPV

# molecule, display.unit, Ki
records = [
    ("O=C(O)CCCCCCCCC(=O)Oc1ccc2c(c1)[C@@]13CCCCC1[C@@H](C2)N(CC1CCC1)CC3 (stereo partly specified)", "nM", 0.29),
    ("O=C(CCC(=O)Nc1ccc2c(c1)[C@@]13CCCCC1[C@@H](C2)N(CC1CCC1)CC3)Nc1ccc2c(c1)[C@@]13CCCCC1[C@@H](C2)N(CC1CCC1)CC3 (stereo partly specified)", "nM", 3.8),
    ("C#CCN1CC[C@]23CCCCC2[C@H]1Cc1ccc(OC(=O)CCCCCCCCC(=O)Oc2ccc4c(c2)[C@@]25CCCCC2[C@@H](C4)N(CC#C)CC5)cc13 (stereo partly specified)", "nM", 10),
    ("O=C(CCCCCCCCC(=O)Oc1ccc2c(c1)[C@@]13CCCCC1[C@@H](C2)N(CC1CC1)CC3)Oc1ccc2c(c1)[C@@]13CCCCC1[C@@H](C2)N(CC1CCC1)CC3 (single isomer, unassigned; (-))", "nM", 0.23),
    ("C#CCN1CC[C@]23CCCC[C@H]2[C@H]1Cc1ccc(O)cc13", "nM", 0.003),
    ("O=C(CCCCCCCCC(=O)Oc1ccc2c(c1)[C@@]13CCCCC1[C@@H](C2)N(CC1CCC1)CC3)Nc1ccc2c(c1)[C@@]13CCCCC1[C@@H](C2)N(CC1CCC1)CC3 (stereo partly specified)", "nM", 0.38),
]

Data origin, for the record: ChEMBL document CHEMBL1148605
